In this section, each of the compounds is paired with its reported Test A disease control rating.
tested on: Phakopsora pachyrhizi (the causal agent of Asian soybean rust); assay: Test A: preventive spray on soybean seedlings, visual disease rating (100 = 100% control; * 50 ppm, ** 10 ppm, *** 250 ppm); assay type: in vivo; details: 50 ppm test suspension; 100 = 100% disease control, 0 = no control
Dear colleague, please return just the value in %, with no unit written.

For orientation, consider the following solved cases.
O=C(NCC(F)F)c1cnc(Cc2ccc(OCC(O)(O)C(F)(F)F)cc2)s1 [compound 295] ... 99
CCOC(=O)C1=NOC(c2ccc(O/C=C(\OCC)C(F)(F)F)cc2)C1 (stereo not drawn) [compound 278] ... 94
CCOC(=COc1ccc(C2CN(C(C)=O)C2)cc1)C(F)(F)F [compound 373] ... 81
CCOC(=COc1ccc(Cc2ccnc(S(C)(=O)=O)n2)cc1)C(F)(F)F [compound 307] ... 0
CCOC(=O)c1cnn(Cc2ccc(OC)c(O/C=C(\OCC)C(F)(F)F)c2)c1 [compound 408] ... 44
CCOC(=COc1ccc(COC)cc1)C(F)(F)F [compound 433] ... 0

Ask: I would be grateful if you could share the reported Test A disease control rating for CCOC(=O)c1cnn(Cc2cc(O/C=C(\OCC)C(F)(F)F)ccc2C)c1 [compound 451] .
Reply: 0

Ask: I would be grateful if you could share the reported Test A disease control rating for CCOC(=O)c1cnn(Cc2ccc(O/C=C(\OS(=O)(=O)C(F)(F)F)C(F)(F)F)cc2)c1 [compound 422] .
Reply: 100

Ask: I would be grateful if you could share the reported Test A disease control rating for CCOC(=O)c1cnn(Cc2c(F)c(F)c(OCC(O)(O)C(F)(F)F)c(F)c2F)c1 [Compound 465] .
Reply: 100

Ask: I would be grateful if you could share the reported Test A disease control rating for CCOC(=O)c1cnn(Cc2ccc(OCC(O)(O)C(F)(F)F)c(Cl)c2)c1 [Compound 459] .
Reply: 100

Ask: I would be grateful if you could share the reported Test A disease control rating for CCOC(=COc1ccc(CC2CC(C(=O)N(C)C)=NO2)cc1)C(F)(F)F (stereo not drawn) [compound 288] .
Reply: 96

###

system: Zymoseptoria tritici (the causal agent of wheat leaf blotch); assay: Test D: preventive spray on wheat seedlings, disease rating (100 = 100% control; * 50 ppm, ** 10 ppm, *** 250 ppm); type: in vivo; conditions: Zymoseptoria tritici; 250 ppm test suspension; 100 = 100% disease control, 0 = no control
RECORDED_METRIC: pest or weed control at 250 ppm (%)
Dear colleague, please return just the value in %, with no unit written.

Ask: I would be grateful if you could share the reported pest or weed control at 250 ppm for `CCOC(=O)c1cnn(CSc2ccc(O/C=C(\OCC)C(F)(F)F)cc2)c1` .
Reply: 7

Ask: I would be grateful if you could share the reported pest or weed control at 250 ppm for `CCOC(=O)c1cnn(Cc2cnn(CC(O)(O)C(F)(F)F)c2)c1` .
Reply: 0

Ask: I would be grateful if you could share the reported pest or weed control at 250 ppm for `CCOC(=O)c1cnn(Cc2ccc(OCC3(C(F)(F)F)OCCO3)s2)c1` .
Reply: 20

Ask: I would be grateful if you could share the reported pest or weed control at 250 ppm for `CCOC(=O)c1cnn(COc2cccc(OCC(O)(O)C(F)(F)F)c2)c1` .
Reply: 81

###

In this section, each of the compounds is paired with its reported Test D disease control rating.
system: Zymoseptoria tritici (the causal agent of wheat leaf blotch); assay: Test D: preventive spray on wheat seedlings, disease rating (100 = 100% control; * 50 ppm, ** 10 ppm, *** 250 ppm); format: in vivo; settings: 250 ppm test suspension; wheat seedlings; 100 = 100% disease control
Marks after values point to notes of the source that are not given here.

O=C(NCC1CC1)c1cnc(Cc2ccc(OCC3(C(F)(F)F)OCCO3)cc2)o1 [compound 248] ... 93*** %

Ask: I would be grateful if you could share the reported Test D disease control rating for O=C(NCC1CC1)c1cnc(Cc2ccc(OCC(O)(O)C(F)(F)F)cc2)o1 [compound 247] .
Reply: 79*** %

Ask: I would be grateful if you could share the reported Test D disease control rating for CCO/C(=C\Oc1ccc(Cn2cc(C(=O)OCC(C)=O)cn2)cc1)C(F)(F)F [compound 216] .
Reply: 37*** %

Ask: I would be grateful if you could share the reported Test D disease control rating for C=CCOC(=O)c1cnn(Cc2ccc(O/C=C(\OCC)C(F)(F)F)cc2)c1 [compound 246] .
Reply: 12*** %

###

system: Blumeria graminis f. sp. tritici (the causal agent of wheat powdery mildew); assay: Test E: preventive spray on wheat seedlings, visual disease rating (100 = 100% control; * 50 ppm, ** 10 ppm, *** 250 ppm); type: in vivo; conditions: 250 ppm test suspension; 100 = 100% disease control, 0 = no control
Marks after values point to notes of the source that are not given here.
In this section, each of the molecules is paired with its reported Test E disease control rating.

CCO/C(=C\Oc1ccc(Cc2ncc(C(=O)NCC(F)F)s2)cc1)C(F)(F)F ... 86*** %
CCOC(=O)c1cnn(Cc2c(F)c(F)c(OCC(O)(O)C(F)(F)F)c(F)c2F)c1 ... 91*** %
CCO/C(=C\Oc1ccc(Cn2cc(C(=O)NC3CC3)cn2)cc1)C(F)(F)F ... 35*** %

We next turn to a different molecule, shown below.
Ask: I would be grateful if you could share the reported Test E disease control rating for `CCO/C(=C\Oc1ccc(Cn2cc(C(=O)NC)cn2)cc1)C(F)(F)F` .
Reply: 90*** %

###

test system: Uncinula necator (the causal agent of grape powdery mildew); experiment: Test C: preventive spray on grape seedlings, disease rating (100 = 100% control; * 50 ppm, ** 10 ppm, *** 250 ppm); format: in vivo; settings: 50 ppm test suspension; grape seedlings; 100 = 100% disease control
Marks after values point to notes of the source that are not given here.
In this section, each of the compounds is paired with its reported Test C disease control rating.

For orientation, consider the following solved cases.
CCO/C(=C\Oc1ccc(Cn2cc(C(=O)OC)cn2)cc1)C(F)(F)F [compound 138] ... 100* %
O=C(COC(=O)c1cnn(Cc2ccc(OCC3(C(F)(F)F)OCCO3)cc2)c1)c1ccccc1 [compound 170] ... 100* %

Ask: I would be grateful if you could share the reported Test C disease control rating for C#CCOC(=O)c1cnn(Cc2ccc(O/C=C(\OCC)C(F)(F)F)cc2)c1 [compound 185] .
Reply: 100* %

###

System: Phakopsora pachyrhizi (the causal agent of Asian soybean rust)
Assay: Test A: preventive spray on soybean seedlings, visual disease rating (100 = 100% control; * 50 ppm, ** 10 ppm, *** 250 ppm)
Type: in vivo
Conditions: 50 ppm test suspension; 100 = 100% disease control, 0 = no control
Text: General protocol for preparing test suspensions for Tests A-E: the test compounds were first dissolved in acetone in an amount equal to 3% of the final volume and then suspended at the desired concentration (in ppm) in acetone and purified water (50/50 mix by volume) containing 250 ppm of the surfactant […] (polyhydric alcohol esters). The resulting test suspensions were then used in Tests A-E. The test solution was sprayed to the point of run-off on soybean seedlings. […]
In this section, each of the compounds is paired with its reported Test A disease control rating.
Dear colleague, please return just the value in %, with no unit written.

For orientation, consider the following solved cases.
CCO/C(=C\Oc1cccc(Cn2cc(C(=O)NCC3CC3)cn2)c1)C(F)(F)F ... 38
CCNC(=O)N1CC(c2ccc(OCC3(C(F)(F)F)OCCO3)cc2)C1 ... 87
CCOC(=O)c1cnn(Cc2ccc(O/C=C(\OCC)C(F)(F)F)cc2F)c1 ... 100
O=[N+]([O-])c1ccc(OCC(O)(O)C(F)(F)F)cc1 ... 100
CCOC(=O)c1cnn(Cc2ccc(OC(F)(F)C3(C(F)(F)F)OCCO3)cc2)c1 ... 100
CCOC(=O)c1cnn(Cc2ccc(O/C=C(\OCC)C(F)(F)F)c(Br)c2)c1 ... 100
CCO/C(=C\Oc1cccc(Cn2cc(C(=O)NC3CCCC3)cn2)c1)C(F)(F)F ... 0
CCOC(=COc1ccc(Cc2ccnc(OCC[Si](C)(C)C)n2)cc1)C(F)(F)F ... 0

Ask: Provide the documented Test A disease control rating with Phakopsora pachyrhizi (the causal agent of Asian soybean rust) as the system for CCOC(=O)c1cnn(C(C)c2cccc(O/C=C(\OCC)C(F)(F)F)c2)c1 (stereo not shown)
Reply: 96

Ask: Provide the documented Test A disease control rating with Phakopsora pachyrhizi (the causal agent of Asian soybean rust) as the system for `CC(=O)N1CC(c2ccc(OCC(O)(O)C(F)(F)F)cc2)C1`
Reply: 99

Ask: Provide the documented Test A disease control rating with Phakopsora pachyrhizi (the causal agent of Asian soybean rust) as the system for `CCOC(=O)c1cnn(Cc2ccc(OCC(O)(O)C(F)(F)F)cc2F)c1`
Reply: 100

Ask: Provide the documented Test A disease control rating with Phakopsora pachyrhizi (the causal agent of Asian soybean rust) as the system for `CCOC(=O)c1cnn(Cc2cc(O/C=C(\OCC)C(F)(F)F)ccc2F)c1`
Reply: 99

Ask: Provide the documented Test A disease control rating with Phakopsora pachyrhizi (the causal agent of Asian soybean rust) as the system for `CCNC(=O)N1CC(c2ccc(OC=C(OCC)C(F)(F)F)cc2)C1`
Reply: 100
